# assay text: cytotoxicity, CellTiter-Glo 3D cell viability assay
# Type: cell-based
# settings: African green monkey, Cell viability (%)
For each entry below, report its viability at 48 h, 50 µM value.
Answers are plain numbers, in %.

Below, 3 molecules whose answers are already recorded.
>>> meas_value("CC(C)C(C)CCC(C)C1CCC2C1(C)CCC1C23C=CC2(CC(O)CCC12C)OO3 (stereo not drawn) [Compound 16, 5α,8α-epidioxyergosta-3β-ol]")
2.96
>>> meas_value("CC1(C)CC[C@]2(C(=O)O[C@@H]3O[C@H](CO)[C@@H](O)[C@H](O)[C@H]3O)CC[C@]3(C)C(=CC[C@@H]4[C@@]5(C)CC[C@H](O[C@@H]6O[C@H](C(=O)O)[C@@H](O)[C@H](O)[C@H]6O)C(C)(C)[C@@H]5CC[C@]43C)[C@@H]2C1 [Compound 11, chikusetsusaponin IVa]")
113
>>> meas_value("CC1(C)CCC2(C(=O)O)CCC3(C)C(=CCC4C5(C)CCC(OC6OC(C(=O)O)C(O)C(O)C6O)C(C)(C)C5CCC43C)C2C1 (stereo not shown) [Compound 10]")
1.47

State its viability at 48 h, 50 µM: C=C1CCC2(C(=O)OC3OC(CO)C(O)C(O)C3O)CCC3(C)C(=CCC4C5(C)CCC(OC6OC(C(=O)O)C(O)C(O)C6O)C(C)(C)C5CCC43C)C2C1 (stereo not shown) [Compound 12, boussingoside A2] 111

---

# assay text: cytotoxicity, CellTiter-Glo 3D cell viability assay
# Assay type: cell-based
# settings: African green monkey, Vero cells, 25 μM, Vero cells, 48 h; read-out: Cell viability (%)
readout type: viability at 48 h, 25 µM (%)
One number for each entry, in %.

State its viability at 48 h, 25 µM: CC(C)=CCC[C@@H](C)[C@H]1CC[C@@]2(C)C3=C(CC[C@]12C)[C@@]1(C)CC[C@H](O)C(C)(C)[C@@H]1CC3 [Compound 19, lanosterol] 101

---

# assay text: cytotoxicity, CellTiter-Glo 3D cell viability assay
# Format: cell-based
# settings: African green monkey, Cell viability (%)
readout type: viability at 48 h, 25 µM (%)
Give bare numbers, in %.

>>> meas_value("CC(C)(O)CCC[C@](C)(O)[C@H]1CC[C@@]2(O)C3=CC(=O)[C@@H]4C[C@@H](O)[C@@H](O)C[C@]4(C)C3CC[C@]12C (stereo partly shown) [Compound 8, taxisterone]")
122
>>> meas_value("C=C1CC[C@]2(C(=O)O)[C@@H](O)C[C@]3(C)C(=CC[C@@H]4[C@@]5(C)CC[C@H](O)C(C)(C)[C@@H]5CC[C@]43C)[C@@H]2C1 [Compound 6, pfaffianol A]")
122
>>> meas_value("C[C@@H]1CC[C@]2(C(=O)O)CC[C@]3(C)C(=CC[C@@H]4[C@@]5(C)C[C@@H](O)[C@@H](O)C(C)(C)[C@@H]5CC[C@]43C)[C@@H]2[C@]1(C)O [Compound 1, Euscaphic acid]")
117
>>> meas_value("CC(C)(O)CCC(=O)[C@](C)(O)[C@H]1CC[C@@]2(O)C3=CC(=O)[C@@H]4C[C@@H](O)[C@@H](O)C[C@]4(C)C3CC[C@]12C (stereo partly shown) [Compound 15, 22-oxo-20-hydroxyecdysone]")
115

Below are 5 compounds. Give each one its viability at 48 h, 25 µM.
1. CC(C)[C@@H](O)C[C@@H](O)[C@](C)(O)[C@H]1CC[C@@]2(O)C3=CC(=O)[C@@H]4C[C@@H](O)[C@@H](O)C[C@]4(C)[C@H]3CC[C@]12C [Compound 7, pterosterone]
2. CC1(C)C(=O)CC[C@@]2(C)C1CC[C@]1(C)C2CC=C2[C@@H]3C[C@](C)(C(=O)O)CC[C@]3(C(=O)O)CC[C@]21C (stereo partly drawn) [Compound 5, (20α)-3-oxoolean-12-ene-28,29-dioic acid]
3. C[C@]12C[C@H](O)[C@H](O)C[C@H]1C(=O)C=C1[C@@H]2CC[C@]2(C)[C@@H](O)CC[C@@]12O [Compound 9]
4. CC(C)C(C)CCC(C)C1CCC2C1(C)CCC1C23C=CC2(CC(O)CCC12C)OO3 (stereo not drawn) [Compound 16, 5α,8α-epidioxyergosta-3β-ol]
5. CC1(C)CC[C@]2(C(=O)O)CC[C@]3(C)C(=CCC4[C@@]5(C)C[C@H](O)[C@H](O)[C@@](C)(CO)C5CC[C@]43C)[C@@H]2C1 (stereo partly shown) [Compound 2, bayogenin]

1. 115
2. 122
3. 106
4. 130
5. 117

State its viability at 48 h, 25 µM: C=C1CCC2(C(=O)OC3OC(CO)C(O)C(O)C3O)CCC3(C)C(=CCC4C5(C)CCC(OC6OC(C(=O)O)C(O)C(O)C6O)C(C)(C)C5CCC43C)C2C1 (stereo not shown) [Compound 12, boussingoside A2] 112
